Listing of entries alongside the reported pIC50.
target-or-system: IKKε (Homo sapiens)
Sequence (Q14164 whole entry, species assumed): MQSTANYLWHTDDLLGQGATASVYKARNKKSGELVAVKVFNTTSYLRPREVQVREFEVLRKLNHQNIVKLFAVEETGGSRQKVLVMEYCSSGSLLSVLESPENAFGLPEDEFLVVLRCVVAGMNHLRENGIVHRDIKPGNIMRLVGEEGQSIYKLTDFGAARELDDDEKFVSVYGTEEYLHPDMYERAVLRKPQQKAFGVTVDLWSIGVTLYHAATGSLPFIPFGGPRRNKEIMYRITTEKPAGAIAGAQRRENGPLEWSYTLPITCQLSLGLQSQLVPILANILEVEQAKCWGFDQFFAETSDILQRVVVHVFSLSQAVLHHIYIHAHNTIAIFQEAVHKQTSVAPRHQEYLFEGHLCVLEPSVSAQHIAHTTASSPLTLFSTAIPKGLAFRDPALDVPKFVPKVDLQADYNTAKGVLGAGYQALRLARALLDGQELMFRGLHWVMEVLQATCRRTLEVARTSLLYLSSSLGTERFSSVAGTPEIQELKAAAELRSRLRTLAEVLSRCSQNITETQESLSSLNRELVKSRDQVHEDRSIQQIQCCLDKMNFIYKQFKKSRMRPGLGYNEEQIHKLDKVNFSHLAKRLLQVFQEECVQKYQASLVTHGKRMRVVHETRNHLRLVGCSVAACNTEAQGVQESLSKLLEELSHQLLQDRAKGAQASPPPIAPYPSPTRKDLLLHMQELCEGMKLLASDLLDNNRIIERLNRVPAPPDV
pIC50: −log10 of the molar value.

Recorded pIC50, per entry:
>  <compound>
CN(CCO)C(=O)c1ccc(-c2cc3nccc(-c4ccc(OC5CCOC5)c(C#N)c4)c3o2)cc1 (stereo not shown) [Compound A63]

>  <pIC50>
> 6.52

$$$$
>  <compound>
COCCN(C)C(=O)c1ccc(-c2cc3nccc(-c4ccc(OC5CCOCC5)c(C#N)c4)c3o2)cc1 [Compound A26]

>  <pIC50>
> 6.52

$$$$

[Q] Sample CCOC(=O)c1ccc(-c2cc3nccc(-c4ccc(OC5CCOCC5)c(C#N)c4)c3o2)cc1 [Compound A4] — what was its pIC50?
[A] 5.52 to 6.52

[Q] Sample COc1cc(-c2cc3nccc(-c4ccc(OC5CCOCC5)c(C#N)c4)c3o2)ccc1C(=O)N1CCN(CCO)CC1 [Compound A89] — what was its pIC50?
[A] > 6.52
